Readings of IC50 for the listed compounds
Target: CDK1 (cyclin dependent kinase 1) / cyclin B (Homo sapiens, UniProt P06493)
Construct: purchased New England Biolabs 6020; host or cells: insect cells
Sequence (P06493 whole entry): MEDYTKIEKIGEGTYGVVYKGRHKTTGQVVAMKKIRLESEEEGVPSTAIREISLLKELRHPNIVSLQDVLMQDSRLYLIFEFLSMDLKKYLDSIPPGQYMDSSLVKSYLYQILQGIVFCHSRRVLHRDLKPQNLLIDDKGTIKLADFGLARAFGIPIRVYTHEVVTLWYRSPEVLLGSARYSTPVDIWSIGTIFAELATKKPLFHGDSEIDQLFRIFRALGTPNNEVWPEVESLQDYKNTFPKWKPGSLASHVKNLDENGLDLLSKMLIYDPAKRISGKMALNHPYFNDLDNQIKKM
Sequence (P14635 whole entry partner): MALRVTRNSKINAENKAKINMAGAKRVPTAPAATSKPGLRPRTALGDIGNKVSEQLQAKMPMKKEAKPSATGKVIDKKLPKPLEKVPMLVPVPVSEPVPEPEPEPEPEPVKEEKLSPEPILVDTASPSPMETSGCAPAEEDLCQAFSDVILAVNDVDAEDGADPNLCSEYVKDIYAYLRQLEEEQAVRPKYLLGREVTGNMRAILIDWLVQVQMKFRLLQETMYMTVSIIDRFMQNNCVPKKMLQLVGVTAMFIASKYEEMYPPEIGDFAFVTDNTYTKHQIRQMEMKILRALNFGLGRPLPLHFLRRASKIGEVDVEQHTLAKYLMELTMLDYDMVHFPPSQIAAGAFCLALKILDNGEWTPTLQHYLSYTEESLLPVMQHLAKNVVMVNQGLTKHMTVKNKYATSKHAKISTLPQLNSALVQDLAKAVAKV
Assay: CDK1 kinase assay
Type: biochemical
Settings: Tables 1-3; >10 or >100 = no 50% inhibition at highest dose tested; read-out: CDK IC50
Procedure: The term n.d. means not tested. Assays to test compound inhibition of other kinases were preformed using methods that measure the amount of phosphorylation of a biotinylated peptide substrate. Biotinylated peptide substrates were selected from the literature as appropriate for the enzyme being evaluated. […] The plate was read on a scintillation counter to determine ^33P-γ-ATP incorporated into the immobilized peptide. […] A maximum and minimum signal for the assay was determined on each plate. […]
QUANTITY: IC50

CC(=O)Nc1ncc(NCCCO)cc1-c1cncc(Nc2cccc(Cl)c2)n1 [Cmd 109]
> 10 µM
Clc1cccc(Nc2cncc(-c3cncc(NCCCc4ccncc4)c3)n2)c1 [Cmd 71]
> 10 µM
O=C(CCCOc1ccccc1)Nc1cncc(-c2cncc(Nc3cccc(Cl)c3)n2)c1 [Cmd 100]
> 10 µM
O=C(Nc1cncc(-c2cncc(Nc3cccc(Cl)c3)n2)c1)N1CCCC1 [Cmd 74]
> 10 µM
O=C(COCc1ccccc1)Nc1cncc(-c2cncc(Nc3cccc(Cl)c3)n2)c1 [Cmd 101]
> 10 µM
Clc1cccc(Nc2cncc(-c3cncc(NCCCc4ccccc4)c3)n2)c1 [Cmd 80]
> 10 µM
Clc1cccc(Nc2cncc(-c3cncc(NCCCc4cccnc4)c3)n2)c1 [Cmd 72]
> 10 µM
COCCNC(=O)c1cncc(-c2cncc(Nc3cccc(Cl)c3)n2)c1 [Cmd 36]
> 100 µM
CN(C)CCCNc1cncc(-c2cncc(Nc3cccc(Cl)c3)n2)c1 [Cmd 35]
~10 µM
Clc1cccc(Nc2cncc(-c3cncc(NCCCN4CCN(c5cccc(Cl)c5)CC4)c3)n2)c1 [Cmd 86]
> 10 µM
OCCCNc1cncc(-c2cncc(Nc3cccc(Cl)c3)n2)c1 [Cmd 4]
5.96 µM
Clc1cccc(Nc2cncc(-c3cncc(NCCCN4CCOCC4)c3)n2)c1 [Cmd 34]
> 100 µM
Clc1cccc(Nc2cncc(-c3cncc(NCCCn4cncn4)c3)n2)c1 [Cmd 76]
> 10 µM
OCCNc1cncc(-c2cncc(Nc3cccc(Cl)c3)n2)c1 [Cmd 31]
~10 µM
CN(C)CCNc1cncc(-c2cncc(Nc3cccc(Cl)c3)n2)c1 [Cmd 33]
~10 µM
N#Cc1ncc(NCCCO)cc1-c1cncc(Nc2cccc(Cl)c2)n1 [Cmd 111]
> 10 µM
COCC(=O)Nc1cncc(-c2cncc(Nc3cccc(Cl)c3)n2)c1 [Cmd 41]
> 100 µM
COc1cccc(Nc2cncc(-c3cncc(NCCCO)c3)n2)c1 [Cmd 57]
81.4 µM
Clc1cccc(Nc2cncc(-c3cncc(NCc4ccccc4)c3)n2)c1 [Cmd 82]
> 10 µM
CCOCCCNC(=O)c1cncc(-c2cncc(Nc3cccc(Cl)c3)n2)c1 [Cmd 40]
> 100 µM
O=C(COc1ccccc1)Nc1cncc(-c2cncc(Nc3cccc(Cl)c3)n2)c1 [Cmd 99]
> 10 µM
OCCCNc1cncc(-c2cncc(NCc3ccccc3)n2)c1 [Cmd 62]
34.4 µM

* * *

Biological target: Glycogen Synthase Kinase-3 (beta isoform) (Oryctolagus cuniculus, UniProt G1T8E2)
Sequence (G1T8E2 1-432): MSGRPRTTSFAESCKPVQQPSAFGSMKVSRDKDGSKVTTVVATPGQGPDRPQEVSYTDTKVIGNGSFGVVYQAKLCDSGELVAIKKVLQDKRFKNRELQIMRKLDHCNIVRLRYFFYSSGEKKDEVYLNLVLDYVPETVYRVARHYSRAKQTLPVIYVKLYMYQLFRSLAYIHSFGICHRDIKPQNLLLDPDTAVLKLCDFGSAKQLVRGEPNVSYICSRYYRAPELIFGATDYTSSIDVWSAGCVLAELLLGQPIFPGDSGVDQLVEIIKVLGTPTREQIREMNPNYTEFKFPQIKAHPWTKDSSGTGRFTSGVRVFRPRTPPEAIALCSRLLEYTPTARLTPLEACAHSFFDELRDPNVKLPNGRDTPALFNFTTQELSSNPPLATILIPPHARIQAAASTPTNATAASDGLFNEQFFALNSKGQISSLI
Assay: GSK-3 kinase selectivity assay
Details: Table 4 kinase selectivity; read-out: IC50, Assay 11 GSK-3
pIC50: −log10 of the molar value.
QUANTITY: pIC50

CN(C)CCNc1cncc(-c2cncc(Nc3cccc(Cl)c3)n2)c1
4.94
Clc1cccc(Nc2cncc(-c3cncc(NCCCn4cncn4)c3)n2)c1
6.71
OCCCNc1cncc(-c2cncc(Nc3cccc(Cl)c3)n2)c1
6.32
OCCCCNc1cncc(-c2cncc(Nc3cccc(Cl)c3)n2)c1
5.40
Clc1cccc(Nc2cncc(-c3cncc(NCCCc4cccnc4)c3)n2)c1
6.50
Clc1cccc(Nc2cncc(-c3cncc(NCCCc4ccncc4)c3)n2)c1
6.80
Clc1cccc(Nc2cncc(-c3cncc(NCCCN4CCCCC4)c3)n2)c1
6.31
O=C(NCCCO)c1cncc(-c2cncc(Nc3cccc(Cl)c3)n2)c1
6.06
Clc1cccc(Nc2cncc(-c3cncc(NCCCn4cccn4)c3)n2)c1
6.22
CN(C)CCCNc1cncc(-c2cncc(Nc3cccc(Cl)c3)n2)c1
5.09

The reported measurements were obtained from patent US6710048B2.
